Cited source for all entries: PubChem BioAssay (NCI)

# System: CAKI-1 renal
# PROTOCOL: NCI-60 one-dose screen, 48 h (100 = growth as untreated, 0 = no growth, -100 = all killed)
# RECORDED CONDITIONS: 10 µM unless noted
About 83,000 compounds went through this panel and 20% of them were active in at least one assay; those are over-represented in the sample as a whole.
Exercise: for every item that follows, state its recorded growth.
Answers are plain numbers, in %.

Consider the following items and state reported growth for each.
1. Cc1ccc(Nc2nc(N)nc(N)c2N=O)cc1Cl
2. Nc1ccc(Cl)c2c(=O)c3ccccc3[nH]c12
3. CCOC(=O)/C(=C/c1ccc([N+](=O)[O-])cc1)C(=O)c1ccccc1

[82.2, 77.7, 81.6]

Consider the following items and state reported growth for each.
1. Cc1ccc(C23CCC(=O)N2CCc2cncn23)cc1 (centres undefined)
2. O=C1/C(=C/c2ccc(-c3ccc(Cl)cc3)o2)SC(=S)N1CCc1ccc(O)cc1
3. Cc1ccc(-c2nn(CC(=O)N3CCOCC3)c(N)c2C#N)cc1

1. 107
2. 20.4
3. 87.3

Consider the following items and state reported growth for each.
1. CCN1C(=O)N(CC)C2C1NN=c1s/c(=C\c3ccccc3)c(=O)n12 (centres undefined)
2. COc1cccc(C2C(C#N)=C(N)Oc3c2ccc2ccccc32)c1 (centres undefined)
3. C#C[C@]1(O)CC[C@H]2[C@@H]3CC=C4c5sc(-c6ccccc6)nc5CC[C@]4(C)[C@H]3CC[C@@]21C
4. CC(=O)OCC(=O)O[C@@H]1C[C@]2(C(C)C)O[C@@]1(C)[C@@H]1CC[C@@H](C)[C@H]1[C@@H]2OC(=O)/C=C/c1ccccc1
5. CCOC(=O)C1=C(c2ccccc2)N=C2N(c3ccccc3)N=C(C(C)=O)N2C1c1ccc(Br)cc1 (centres undefined)
6. O=C(CNc1ncco1)Nc1ccc(S(=O)(=O)c2ccc(NC(=O)CNc3ncco3)cc2)cc1
7. Cc1ccccc1NC(=O)Cn1cc(CN2CCN(c3ccnc4cc(Cl)ccc34)CC2)nn1

1. 27.1
2. 30.1
3. 55.2
4. -2.07
5. 87.1
6. -51.6
7. 80.3

Consider the following items and state reported growth for each.
1. CN(C)c1ccc(Cc2cc(-c3ccccc3)nn(C/C(=N/O)c3ccccc3)c2=O)cc1
2. CCN(CC)c1ccc(/C=N/NC(=O)c2ccccc2Nc2ccnc(C(F)(F)F)c2)c(O)c1
3. C=C(C)[C@@H]1CC[C@]2(C(=O)NC(C)=O)CC[C@]3(C)[C@H](CC[C@@H]4[C@@]5(C)CCCNC(C)(C)[C@@H]5CC[C@]43C)[C@@H]12
4. Cc1cc([N+](=O)[O-])ccc1NC(=O)c1ccc2c(c1)nc(-c1ccccc1)n2C1CCCCC1
5. C=C(C)[C@@H]1CCC[C@]2(C(=O)OC)CC[C@]3(C)[C@@H](CC[C@@H]4[C@@]5(C)CCCNC(C)(C)[C@@H]5CC[C@]43C)[C@@H]12
6. C(CCCSC1=NCCN1)CCSC1=NCCN1
7. Cn1ccnc1C(=O)/C=C/c1ccc(CC(=O)Nc2cc(F)c(F)c(F)c2)cc1

[53.6, 56.9, 71.8, 70.3, 73.3, 101, 31.4]

Consider the following items and state reported growth for each.
1. Fc1ccc(/C=C/c2cc(/C=C/c3ccc(F)cc3)n(-c3cc(F)cc(F)c3)n2)cc1
2. CCCCCCCCOC(=O)c1c(C)[nH]c(/C=C2\N=C(c3ccc[nH]3)C=C2OC)c1C
3. C#CCOc1ccc(C2=NN(C)C3N=C(Cl)c4ncn(C)c4N23)cc1OCC#C (centres undefined)
4. O=C(Nc1ccccc1)Nc1ccccc1CNc1nc(Nc2ccc(OCCN3CCCC3)cc2)ncc1Cl
5. Nc1ccc(N)c2c1C(=O)c1cccc([N+](=O)[O-])c1C2=O

1: 90.6; 2: -13.2; 3: 103; 4: 62.7; 5: 5.03

Consider the following items and state reported growth for each.
1. O=C(Nc1ncc(Cc2ccc(Cl)cc2)s1)C1=NCCCCN1
2. CNC(=O)c1cc(Oc2cccc3nc(NC(=O)Nc4ccc(F)cc4F)ccc23)ccn1
3. O=C1c2ccccc2-c2c1c1ccncc1c(=O)n2CCCn1ccnc1
4. CN1CCN(Cc2ccc(NC(=O)c3cncc(C#Cc4cnc(N)c5ncccc45)c3)cc2Cl)CC1
5. CCCCCCCC/C=C\CCCCCCCCOc1ccc(CC(=O)NCC[N+]2(C)CCCC2)cc1

90.5
72.7
49.9
73.5
50.9

Consider the following items and state reported growth for each.
1. Cc1[nH]c(C(=O)Nc2ccc(C(N)=O)cc2OC(C)C)c(Cl)c1Cl
2. C#Cc1ccc(NC(=O)Cc2ccc(/C=C/C(=O)c3nccn3C)cc2)cc1
3. CCCCCC(C)(O)C(C(=O)O)c1ccccc1 (centres undefined)
4. Cc1ccc2c(c1)CC(O)CC1C(=O)N(CCO)CC(=O)N21 (centres undefined)
5. COc1cccc(-c2cc(-c3ccc(Nc4nc(Nc5ccc(Cl)cc5)nc(Nc5ccc(Cl)cc5)n4)cc3)nc(N)c2C#N)c1
6. NCCNc1ccc([N+](=O)[O-])cc1
7. COc1ccc(CNc2ccc3nc(CCC4CCCCC4)[nH]c3c2)cc1
8. Cc1cc(C(=O)Nc2cc(Nc3ncccc3-c3ncnc4nc[nH]c34)ccc2F)cc(C(C)(C)C#N)c1

[105, 47.7, 100, 92.6, 37.3, 113, 72.2, 25.1]

Consider the molecule O=C(c1ccc(F)cc1)C1CCN(CCn2c(=O)[nH]c3ccccc3c2=O)CC1 and give its recorded growth.
84.2

---

Exercise: for every item that follows, state its recorded growth.
# Test system: HT29 colon
# PROTOCOL: NCI-60 one-dose screen, 48 h (100 = growth as untreated, 0 = no growth, -100 = all killed)
# RECORDED CONDITIONS: 10 µM unless noted
The panel holds about 83,000 compounds, 20% with a hit somewhere; the sample as a whole holds those more often.
Give bare numbers, in %.

Some compounds with known growth results, for comparison:
{"COMPOUND": "C=C(C)[C@@H]1CC[C@]2(C(=O)NC(C)=O)CC[C@]3(C)[C@H](CC[C@@H]4[C@@]5(C)CCCNC(C)(C)[C@@H]5CC[C@]43C)[C@@H]12", "U": "%", "growth": -5.24}
{"COMPOUND": "C=C1CC[C@@H]2[C@](C)(COC(C)=O)[C@H](OC(C)=O)CC[C@@]2(C)[C@@H]1CC(Nc1ccc(S(=O)(=O)Nc2nccc(C)n2)cc1)C1=CCOC1=O (stereo partly specified)", "U": "%", "growth": -28.2}
{"COMPOUND": "C#CC#CC#CC#CC#CC#CC#CC#CC[C@@H]1OC[C@H](COC(=O)O[C@@H](C(=O)O[C@H]2C[C@@]3(O)[C@@H](OC(=O)c4ccccc4)[C@@H]4[C@]5(OC(C)=O)CO[C@@H]5C[C@H](O)[C@@]4(C)C(=O)[C@H](OC(C)=O)C(=C2C)C3(C)C)[C@@H](NC(=O)c2ccccc2)c2ccccc2)O1", "U": "%", "growth": 4.07}
{"COMPOUND": "COc1cc2c(c(OC)c1OC)CCC(c1cccc(C(=O)Nc3ccc([N+](=O)[O-])cc3)c1)O2 (stereo unspecified)", "U": "%", "growth": 64}
{"COMPOUND": "Cc1nn(-c2ccccc2)c(Oc2ccccc2)c1/C=N/NC(=O)Cn1c(=O)sc2ccccc21", "U": "%", "growth": 46.8}

Consider now this further compound.
Consider the compound Oc1c(Cl)cc(Cl)c2ccc(CN3CCNCC3)nc12 and give its recorded growth.
105

---

# Tested on: HOP-62 NSCLC
# PROTOCOL: NCI-60 one-dose screen, 48 h (100 = growth as untreated, 0 = no growth, -100 = all killed)
# RECORDED CONDITIONS: 10 µM unless noted
This is part of a sample that, as a whole, favours compounds with a hit. Of some 83,000 tested, about 20% had one in any assay.
Exercise: for every item that follows, state its recorded growth.
Give bare numbers, in %.

Consider the following items and state reported growth for each.
1. O=c1n(C2OC(CO)C(O)C2O)ccc2nccn12 (stereo unspecified)
2. O=C1c2cccnc2C(=O)c2c1c(C(=O)OCCCN1CCOCC1)c1ccccn21
3. COc1cc(CNC(=O)CCCC/C=C/C(C)C)ccc1OCc1cn(-c2ccc(C(F)(F)F)cc2)nn1
4. COc1cccc2cc(N(C)c3nc(C)nc4c3CCC4)ccc12
5. CCCc1cc(CCC)n2nc(N)nc2n1

1. 127
2. -25.6
3. 64.6
4. 14.7
5. 97.5

Consider the molecule CC(=O)Cc1nsc(NC(=O)c2cc(-c3cc(Cl)ccc3Cl)oc2C)n1 and give its recorded growth.
102

---

# System: NCI-H522 lung
# PROTOCOL: NCI-60 one-dose screen, 48 h (100 = growth as untreated, 0 = no growth, -100 = all killed)
# RECORDED CONDITIONS: 10 µM unless noted
About 83,000 compounds went through this panel and 20% of them were active in at least one assay; those are over-represented in the sample as a whole.
Classification field: met = growth at or over 80%; not met = growth under 80%.

{"COMPOUND": "COc1cc(OCc2cccc(-c3ccc4c(c3)OCCO4)c2C)cc(OC)c1C=O", "EXPERIMENTAL SYSTEM": "NCI-H522 lung", "LABEL VALUE": "not met"}

Turning now to a further compound:
For this compound, is measured growth 80% or higher? Cc1nc2c(c(-c3ccccc3)n1)Cc1c(ccc3ccccc13)O2
met
